Just for reference, patent US20230017045A1 is where these values come from.

# System: test plant species
# assay-summary: Post-emergent herbicidal activity test (greenhouse, foliar spray, visual growth reduction)
# Format: in vivo
# condition: post-emergence, 336 h, CHEAL: lambsquarters (Chenopodium album), 140 g ai/ha, 14 days after application, read-out: Visual Growth Reduction (%) 14 Days After Application, CHEAL
Could you please report measured pest or weed control at 140 g/ha for the items listed next?

The value of pest or weed control at 140 g/ha measured for the molecule "O=C(O)c1nc(-c2ncc(Cl)cc2Cl)ccc1Cl" turned out to be 95 to 100%

The value of pest or weed control at 140 g/ha measured for the molecule "COC(=O)c1nc(-c2cc3c(cc2Cl)OC(F)(F)O3)ccc1Cl" turned out to be 85 to 94%

The value of pest or weed control at 140 g/ha measured for the molecule "COC(=O)c1nc(-c2ccc(Cl)c(F)c2Cl)ccc1Cl" turned out to be 95 to 100%

The value of pest or weed control at 140 g/ha measured for the molecule "COC(=O)c1nc(-c2ccc(Cl)c(OC)c2F)ncc1Cl" turned out to be 0 to 29%

The value of pest or weed control at 140 g/ha measured for the molecule "COC(=O)c1nc(-c2ccc(Cl)c(C)c2Cl)ccc1Cl" turned out to be 95 to 100%
